All figures here come from paper PMC4595849.

Target: hDHODH (Met30-Arg396) (Homo sapiens)
Construct: hDHODH (Met30-Arg396) was expressed and purified in the same manner as described in our recently published work; made in house
Sequence (Q02127 29-395): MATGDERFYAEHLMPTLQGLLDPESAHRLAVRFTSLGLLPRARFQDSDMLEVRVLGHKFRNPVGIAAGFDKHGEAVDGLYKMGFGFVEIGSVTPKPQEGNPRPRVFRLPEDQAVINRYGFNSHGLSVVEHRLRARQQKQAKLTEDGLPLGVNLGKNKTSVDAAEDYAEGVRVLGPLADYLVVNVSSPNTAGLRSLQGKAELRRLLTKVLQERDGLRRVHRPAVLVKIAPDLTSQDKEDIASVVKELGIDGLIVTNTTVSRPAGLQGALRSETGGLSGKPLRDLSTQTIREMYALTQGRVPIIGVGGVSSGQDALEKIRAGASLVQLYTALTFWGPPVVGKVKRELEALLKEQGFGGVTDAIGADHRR
Assay: hDHODH enzyme inhibition, DCIP assay
Format: biochemical
Settings: hDHODH; mean ± SD of three independent experiments; IC50 measured if inhibition rate at 10 μM was larger than 50%
Overview of reported IC50 across a group of compounds:

[[record]]
compound = "Oc1c(Cl)cc(Cl)cc1/C=N/Nc1nc(-c2ccccc2)cs1"
testtarget = "hDHODH (Met30-Arg396) (Homo sapiens)"
quantitykind = "IC50"
result = "> 10 µM"

[[record]]
compound = "O=C(O)c1ccccc1/C=N/Nc1nc(-c2ccc(-c3ccccc3)cc2)cs1"
testtarget = "hDHODH (Met30-Arg396) (Homo sapiens)"
quantitykind = "IC50"
result = "> 10 µM"

[[record]]
compound = "C/C(=N\\Nc1nc(-c2ccc(Br)cc2)cs1)c1ccccc1O"
testtarget = "hDHODH (Met30-Arg396) (Homo sapiens)"
quantitykind = "IC50"
result = "> 10 µM"

[[record]]
compound = "Brc1ccc(-c2csc(N/N=C/c3ccco3)n2)cc1"
testtarget = "hDHODH (Met30-Arg396) (Homo sapiens)"
quantitykind = "IC50"
result = "> 10 µM"


Moving on to the next compound.
What measured IC50 goes with CC(C)c1ccc(-c2csc(N/N=C/c3ccccc3O)n2)cc1 ?
> 10 µM
